protocol: chemical genetic growth profiling, strain panel (AID 1159580);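 also: tested at 20 µM; growth read once vehicle control cultures reached saturation at 30 °C; 1 = growth at the plate median or of vehicle wells; lower values mean less growth of the strain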
stated.conditions: S. cerevisiae deletion strains, growth OD, locus YIL125W, strain kgd1, stronger effect = lower value
Out of some 5,500 compounds screened, about 2,000 (36%) were called active. Roughly 18% stayed inconclusive and do not appear here. This is one part of the list.
Catalogue of normalized growth values
Form: value (number only, do not type unit).

Guide cases for normalized growth, answers given:
COc1ccc(-c2coc3c(OC)c(OC)cc(O)c3c2=O)cc1 ... 0.983
COc1ccc(-c2coc3c(OC)c(OC)ccc3c2=O)cc1 ... 1
CN1Cc2c(ccc3c2OCO3)C2C(O)Cc3cc4c(cc3C21)OCO4 (stereo unspecified) ... 1.02
COc1ccc(-c2c(O)c3cc4c(c(CC=C(C)C)c3oc2=O)OC(C)(C)CC4)cc1 ... 1.02
COc1cc(O)c(C(=O)c2ccccc2)cc1O ... 1

Kindly review the next molecule as well.
Incoming: Quick one: normalized growth of CN1CCc2cc3c(cc2C1O)OCO3 (stereo unspecified) ?
Outgoing: 0.988

---

protocol: chemical genetic growth profiling, strain panel (AID 1159580)
stated.conditions: S. cerevisiae deletion strains, growth OD, locus YBR023C, strain chs3
Among all 5,500 compounds or so, about 2,000 (36%) were called active. About 18% were inconclusive and are not listed. Rule as the data show it: active = normalized growth mostly below about 0.91 (no sharp cut-off); inconclusive = no clear call, values can overlap the other calls; inactive = mostly above about 0.92. This is one part of the list.
Outcomes you can answer with include only these: 1.0 = active, 0.0 = inactive

COc1cccc2c1CCC1CC(=O)CCC21C (stereo not given) ... 0.0
OCC(O)Cc1ccc2c(c1)OCO2 (stereo not given) ... 0.0
Cn1cc[nH]c1=S ... 0.0
C[C@@H](N)CO ... 0.0

Shifting focus to the molecule that follows.
Incoming: Test call for this molecule, please: O=C(O)C1CC([C@@H]2CCCCN2)CN2CCCCC12 (stereo not given in full)
Outgoing: 0.0

---

protocol: chemical genetic growth profiling, strain panel (AID 1159580)
stated.conditions: S. cerevisiae deletion strains, growth OD, locus YBR021W, strain FUR4, stronger effect = lower value
Out of some 5,500 compounds screened, about 2,000 (36%) were called active. Another 18% or so got no clear call; they are omitted. This is one part of the list.
Catalogue of normalized growth values
Form: value (number only, do not type unit).

Guide cases for normalized growth, answers given:
COc1ccc(-c2coc3c(O)c(OC)ccc3c2=O)cc1 ... 0.818
COc1ccc(-c2coc3c(OC)c(OC)cc(O)c3c2=O)cc1 ... 0.838
COC(=O)COc1cc(Cl)c(Cl)cc1Cl ... 0.98
Cc1cc(=O)c2c(O)cc(O)c(C)c2o1 ... 0.995
NC[C@@H]1O[C@H](O[C@@H]2[C@@H](CO)OC(O[C@@H]3[C@@H](O)[C@H](N)C[C@H](N)[C@H]3OC3O[C@H](CN)[C@@H](O)[C@H](O)[C@H]3N)[C@@H]2O)[C@H](N)[C@@H](O)[C@@H]1O (some centres not stated) ... 0.966
COc1ccc2cc1Oc1ccc(cc1)C[C@H]1c3cc(c(OC)cc3CCN1C)Oc1c(OC)c(OC)cc3c1[C@H](C2)N(C)CC3 ... 0.596
CC(=O)O[C@]1(C(C)=O)CCC2C3C=C(C)C4=CC(=O)CCC4(C)C3CCC21C (some centres not stated) ... 0.924
COc1ccc(-c2coc3c(OC)c(OC)ccc3c2=O)cc1 ... 0.728

Incoming: Quick one: normalized growth of "C=CCc1ccc2c(c1)OCO2" ?
Outgoing: 1.03

Incoming: Moving on to "COc1ccc(-c2coc3c(OC)c(OC)cc(OC)c3c2=O)cc1"
Outgoing: 0.875

Incoming: Moving on to "O=C(O)COc1cc(Cl)c(Cl)cc1Cl"
Outgoing: 1.01

Incoming: Moving on to CCC(C(N)=O)c1ccccc1 (configuration not stated)
Outgoing: 1.04

---

Catalogue of normalized growth values
protocol: chemical genetic growth profiling, strain panel (AID 1159580);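 also: tested at 20 µM; growth read once vehicle control cultures reached saturation at 30 °C; 1 = growth at the plate median or of vehicle wells; lower values mean less growth of the strain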
stated.conditions: S. cerevisiae deletion strains, growth OD, locus YMR231W, strain pep5, stronger effect = lower value
Among all 5,500 compounds or so, about 2,000 (36%) were called active. Roughly 18% stayed inconclusive and do not appear here. Some of the results follow.
Form: value (number only, do not type unit).

OC(CCN1CCCCC1)(c1ccccc1)c1ccccc1 ... 0.995
CC(C)[C@H](N)C(=O)OCCOCn1cnc2c(=O)[nH]c(N)nc21 ... 1
CCOC(=O)c1ncn2c1CN(C)C(=O)c1cc(F)ccc1-2 ... 1.01
CO[C@H]1C[C@H](O[C@H]2[C@H](C)[C@@H](OC3O[C@H](C)C[C@H](N(C)C)[C@H]3O)[C@@H](C)C[C@]3(CO3)C(=O)[C@H](C)[C@@H](O)[C@@H](C)[C@@H](C)OC(=O)[C@@H]2C)O[C@@H](C)[C@@H]1O (stereo partly drawn) ... 1
Cc1ccc(O)cc1 ... 1.02
CCCCOc1ccc(C(=O)CCN2CCCCC2)cc1 ... 0.972
C[C@@H]1O[C@@H](O[C@H]2[C@@H](Oc3cc(O)c4c(c3)O[C@H](c3ccc(O)cc3)CC4=O)O[C@H](CO)[C@@H](O)[C@@H]2O)[C@H](O)[C@H](O)[C@H]1O ... 0.983
COc1ccc(-c2coc3c(O)c(OC)ccc3c2=O)cc1 ... 0.987
COc1ccc2c(c1)OC[C@@H](Cc1ccc(OC)c(OC)c1)[C@H]2O ... 0.981
O=C1C[C@@H](c2ccc(O)cc2)Oc2cc(O)cc(O)c21 ... 0.976

Incoming: Quick one: normalized growth of CN1CCCC(n2nc(Cc3ccc(Cl)cc3)c3ccccc3c2=O)CC1 (stereo not drawn) ?
Outgoing: 1

Incoming: Moving on to "CCSC(=N)N"
Outgoing: 1.01

Incoming: Moving on to "COc1ccc2cc1Oc1ccc(cc1)C[C@H]1c3cc(c(OC)cc3CCN1C)Oc1c(OC)c(OC)cc3c1[C@H](C2)N(C)CC3"
Outgoing: 1.01

---

Catalogue of normalized growth values
protocol: chemical genetic growth profiling, strain panel (AID 1159580);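 also: tested at 20 µM; growth read once vehicle control cultures reached saturation at 30 °C; 1 = growth at the plate median or of vehicle wells; lower values mean less growth of the strain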
stated.conditions: S. cerevisiae deletion strains, growth OD, locus YDL005C, strain med2, stronger effect = lower value
Out of some 5,500 compounds screened, about 2,000 (36%) were called active. Not shown: some 18% with an inconclusive outcome. The list shows a part of the results.
Form: value (number only, do not type unit).

Incoming: Quick one: normalized growth of "COc1ccc(-c2coc3c(OC)c(OC)cc(O)c3c2=O)cc1" ?
Outgoing: 1

Incoming: Moving on to "CC(C)[N+](C)(CCOC(=O)C1c2ccccc2Oc2ccccc21)C(C)C"
Outgoing: 1.02

Incoming: Moving on to "CCC1(c2ccccc2)C(=O)NCNC1=O"
Outgoing: 1.01

Incoming: Moving on to CC1(C)C2CC[C@]3(C)C(C(=O)C=C4[C@@H]5C[C@@](C)(C(=O)O)CC[C@]5(C)CC[C@]43C)[C@@]2(C)CC[C@@H]1OC(=O)CCC(=O)O (stereo partly specified)
Outgoing: 0.994

Incoming: Moving on to COc1ccc2c(c1)C1(C)CCC(=O)CC1CC2 (stereo unspecified)
Outgoing: 1.01

Incoming: Moving on to "O=[N+]([O-])O[C@H]1CO[C@H]2[C@@H]1OC[C@H]2O[N+](=O)[O-]"
Outgoing: 0.991

Incoming: Moving on to COc1cccc2c1CCC1CC(=O)CCC21C (stereo unspecified)
Outgoing: 1

Incoming: Moving on to O=C(O)C1CC([C@@H]2CCCCN2)CN2CCCCC12 (stereo partly specified)
Outgoing: 0.972

Incoming: Moving on to "C=CC1=C(C(=O)O)N2C(=O)[C@@H](NC(=O)/C(=N/O)c3csc(N)n3)[C@H]2SC1"
Outgoing: 1.02

Incoming: Moving on to "C=CCc1ccc2c(c1)OCO2"
Outgoing: 1.02

Incoming: Moving on to CC1(C)S[C@@H]2[C@H](NC(=O)[C@H](NC(=O)N3CCNC3=O)c3ccccc3)C(=O)N2C1C(=O)O (stereo partly specified)
Outgoing: 0.978

---

protocol: chemical genetic growth profiling, strain panel (AID 1159580);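 also: tested at 20 µM; growth read once vehicle control cultures reached saturation at 30 °C; 1 = growth at the plate median or of vehicle wells; lower values mean less growth of the strain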
stated.conditions: S. cerevisiae deletion strains, growth OD, locus YMR263W, strain SAP30, stronger effect = lower value
In all, about 5,500 compounds went through this assay and about 2,000 (36%) were called active. Roughly 18% stayed inconclusive and do not appear here. This is one part of the list.
Catalogue of normalized growth values
Form: value (number only, do not type unit).

Guide cases for normalized growth, answers given:
CCOC(=O)/C=C(\C)OP(=O)(OC)OC ... 0.987
C[N+](C)(C)CC(=O)[O-] ... 0.977
C[C@H](NC(=O)/C(C#N)=C/c1ccc(O)c(O)c1)c1ccccc1 ... 1
CC(C)(C)OC(=O)N1CCC(C(N)=O)CC1 ... 1.02
C[N+](C)(C)CCOP(=O)([O-])OP(=O)(O)OC[C@H]1OC(n2ccc(N)nc2=O)[C@H](O)[C@@H]1O (stereo partly specified) ... 0.983

Incoming: Quick one: normalized growth of C[N+]1(C)C2CCC1CC(OC(=O)c1c[nH]c3ccccc13)C2 (stereo unspecified) ?
Outgoing: 0.997

Incoming: Moving on to "Cc1ccc(O)cc1"
Outgoing: 1.02

Incoming: Moving on to "Cc1cc(=O)n2c(-c3ccc(Cl)cc3)csc2n1"
Outgoing: 0.987
